Test system: KM12 colon
Assay: NCI-60 one-dose screen, 48 h (100 = growth as untreated, 0 = no growth, -100 = all killed)
Conditions: 10 µM unless noted
Compounds without any hit were thinned out: in the full panel of roughly 83,000, 20% have a hit.
Reported growth values are given for each entry in this list.
metric: growth (%)

O=C(O)Cn1c(O)c(/C=C2/C=c3cc4c(cc3=NC2=O)OCCO4)sc1=S = 104
O=C(NN1C(=O)/C(=C/C=C/c2ccc([N+](=O)[O-])o2)SC1=S)c1ccc(Cl)cc1 = -93
COc1ccc(C(=O)/C=C/c2ccccc2Cl)cc1S(N)(=O)=O = 111
COc1ccc(N2N=C(c3ccc4c(c3)OCO4)CC2c2cccc(NC(=O)CCCNS(=O)(=O)c3ccc(F)cc3)c2)cc1 (centres undefined) = 41.3
Cn1cc(-c2cc(N)n3nc(-c4cn(C)c5ccc(Cl)cc45)cc3n2)c2ccccc21 = 109
CC(C)Sc1nc(NCCc2c[nH]c3ccccc23)c(C#N)c(-c2ccccc2)n1 = 6.51
CCOc1ccc(-c2c(C#N)c(-c3ccc(Cl)cc3)nc3n[nH]c(-c4ccc(Cl)cc4)c23)cc1OC = 30.2
COc1ccc2[nH]cc(-c3cc(N)n4nc(-c5cn(C)c6ccccc56)cc4n3)c2c1 = -69.9
CCOC(=O)c1ccc(Nc2nc(NN)nc(-c3ccc(F)cc3)c2C#N)cc1 = 109

----------
# growth annotations
System: HOP-92 NSCLC
Experiment: NCI-60 one-dose screen, 48 h (100 = growth as untreated, 0 = no growth, -100 = all killed)
Conditions: 10 µM unless noted
This is part of a sample that, as a whole, favours compounds with a hit. Of some 83,000 tested, about 20% had one in any assay.
metric: growth (%)

COc1ccc(-c2nc3ccc(C(=O)NN4C(=O)c5ccc([N+](=O)[O-])cc5C4=O)cc3[nH]2)cc1 = 81
CCOC(=O)C(N=Nc1ccc(S(=O)(=O)N=C(N)N)cc1)C(C)=O (centres undefined) = 99.9
Nc1nnc(-c2c[nH]c3ccc(Br)cc23)c(-c2c[nH]c3ncc(Br)cc23)n1 = 21.5
Cc1ccc(C(=O)C(c2c[nH]c3ccccc23)c2c[nH]c3ccccc23)cc1 = 89.9
CC(=O)Nc1cccc(Nc2nccc(N[C@@H](C)c3ccccc3)n2)c1 = 45
COc1cc(OC)cc(-c2cc3ccc(N(C)C)cc3c(=O)[nH]2)c1 = 94.2
Cc1sc(C(NC(=O)OCCn2c([N+](=O)[O-])cnc2C)C(F)(F)Cl)nc1-c1ccc(OC(F)(F)F)cc1 (centres undefined) = -82
Cc1cccc(NC(=O)[C@]23CCC(C)(C)CC2C2=CCC4[C@@]5(C)C[C@@H](O)[C@H](O)[C@@](C)(CO)C5CC[C@@]4(C)[C@]2(C)CC3)c1 (some centres undefined) = -24.8
CC(=O)Nc1ccc(-c2cn(-c3cccc(C(=O)Nc4ccc(N5CCN(C)CC5)cc4)c3)nn2)cn1 = 44.8
CC(C)Sc1nc(NCCc2c[nH]c3ccccc23)c(C#N)c(-c2ccccc2)n1 = 4.4
O=c1[nH]n(C(=S)N/N=C/c2ccccc2Cl)c(=O)c2ccccc12 = -0.742
COc1ccc(/C=C2\C(=O)Nc3ccc(Cl)cc32)cc1OCc1ccccn1 = -12.7
COc1cc2oc(-c3cccc(C(=O)Nc4cccc([N+](=O)[O-])c4)c3)cc(=O)c2c(OC)c1OC = 6.73
N#Cc1c(-c2cccc(Cl)c2Cl)cc(-c2ccc3ccccc3c2)[nH]c1=O = -16.6
Cc1ccc2c(N)c(C(=O)Nc3ccc(-c4ccccc4)cc3)sc2n1 = 27.1
O=c1[nH]c2ccccc2cc1CSc1cccc(Nc2nccc(-c3ccc4ccccc4c3)n2)c1 = 117
O=C1NC(=O)c2c1c1c3cc(Br)ccc3[nH]c1c1oc3ccc(F)cc3c21 = -53.2
COc1cc(-c2ccc(/C=N/NC(=O)c3[nH]c4ccc(Br)cc4c3-c3ccccc3)o2)cc(OC)c1OC = 61.7
C=C1CCC2C3(C)COC(c4cc(F)cc(F)c4)OC3CCC2(C)C1CC(O)C1=CCOC1=O (centres undefined) = 46.2
